Biological target: proton pump(H^+ /K^+ ATPase)
Assay: Inhibition of proton pump(H^+ /K^+ ATPase) activity
Settings: pH 6.0, 37° C., 30 minutes preincubation and 30 minutes reaction; read-out: IC50 Test compound
Decide using IC50 alone. Strictly below 2 µM: 1. Equal to or above 2 µM: 0.

Use these answered entries as a reference point.
{"COMPOUND": "Cc1cc(N2CCc3ccsc3C2C)nc(N(C)c2ccccc2)n1.Cl (centres unmarked) [Example 54, hydrochloride]", "CLASSIFICATION": 0}
{"COMPOUND": "Cc1nc(N(C)c2ccccc2)nc(N2CCc3ccccc3C2)c1C.Cl [Example 43, hydrochloride]", "CLASSIFICATION": 1}
{"COMPOUND": "Cc1cc(N2CCc3ccsc3C2C)nc(Nc2ccc(F)cc2)n1.Cl (centres unmarked) [Example 53, hydrochloride]", "CLASSIFICATION": 0}
{"COMPOUND": "Cc1nc(N(C)c2ccccc2)nc(N2CCc3ccccc3C2C)c1C.Cl (centres unmarked) [Example 18, hydrochloride]", "CLASSIFICATION": 0}
{"COMPOUND": "Cc1cc(F)ccc1Nc1nccc(N2CCc3ccccc3C2C)n1.Cl (centres unmarked) [Example 1, hydrochloride]", "CLASSIFICATION": 0}

## Input Dear colleague, could you confirm whether IC50 of Cc1ccc(Nc2nc(C)c(C)c(N3CCc4ccccc4C3C)n2)cc1.Cl (centres unmarked) [Example 25, hydrochloride] falls below 2 µM? Thanks.
## Output 1

* * *

Target: proton pump(H^+ /K^+ ATPase)
Assay: Inhibition of proton pump(H^+ /K^+ ATPase) activity
Assay type: biochemical
Conditions: pH 6.0, 37° C., 30 minutes preincubation and 30 minutes reaction; read-out: IC50 Test compound
Measured IC50 accompanies every entry in the list below.
Return type: number; implicit unit µM.

{"COMPOUND": "Cc1ccccc1Nc1nc(C)c(C)c(N2CCc3ccccc3C2C)n1.Cl (stereo not shown) [Example 24, hydrochloride]", "IC50 [µM]": 0.6}

Now for a further compound.
## Input Item: Cc1nc(N(C)c2ccccc2)nc(N2CCc3ccccc3[C@@H]2C)c1C.Cl [Example 20, hydrochloride] Test system: proton pump(H^+ /K^+ ATPase) Read-out: IC50 Value: ?
## Output 4.4
